Data provenance is ChEMBL document CHEMBL1139680.

Experiment notes: Oral bioavailability in mouse at 10 mg/kg, po
Format: ADME, organism-based
Condition details: in vivo

Smiles text: CCCN1CC[C@@H](Cc2ccc(F)cc2)C[C@@H]1CCCNC(=O)Nc1cccc(C(C)=O)c1
bioavailability, %: 36

----------
Assay read-out pKi; system under study: Sodium-dependent noradrenaline transporter (Homo sapiens).
pKi: −log10 of the molar value.

Molecule: CC(=O)c1cccc(NC(=O)NCCC[C@H]2C[C@H](Cc3ccc(F)cc3)CCN2CC2CC2)c1
pKi: 5.46
--
Molecule: N#Cc1cccc(NC(=O)NCCC[C@H]2C[C@H](Cc3ccccc3)CCN2)c1 (stereo in doubt; 4)
pKi: 7.43
--
Molecule: C=CCN1CC[C@@H](Cc2ccc(F)cc2)C[C@@H]1CCCNC(=O)Nc1cccc(C(C)=O)c1
pKi: 5.91
--
Molecule: CC(=O)c1cccc(NC(=O)NCCC[C@H]2C[C@H](Cc3ccc(F)cc3)CCN2C)c1
pKi: 6.59

----------
Measured IC50 values are reported for all entries that follow.
Subject of test: C-C chemokine receptor type 3 (Homo sapiens)
Sequence (P51677 whole entry): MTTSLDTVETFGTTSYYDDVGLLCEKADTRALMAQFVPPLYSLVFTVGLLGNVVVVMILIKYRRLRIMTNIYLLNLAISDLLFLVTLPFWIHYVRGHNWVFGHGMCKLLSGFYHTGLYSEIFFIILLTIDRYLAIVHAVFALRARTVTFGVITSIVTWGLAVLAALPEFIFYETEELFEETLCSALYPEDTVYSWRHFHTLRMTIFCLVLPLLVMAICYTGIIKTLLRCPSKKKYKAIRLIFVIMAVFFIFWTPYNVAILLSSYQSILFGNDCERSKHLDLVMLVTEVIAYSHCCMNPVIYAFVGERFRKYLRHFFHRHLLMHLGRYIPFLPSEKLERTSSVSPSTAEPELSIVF
Experiment notes: Binding affinity to CCR3

Compound: C#CCN1CC[C@@H](Cc2ccc(F)cc2)C[C@@H]1CCCNC(=O)Nc1cc(C(C)=O)cc(C(C)=O)c1
IC50: 1.9 nM (antagonist)
--
Compound: N#Cc1cccc(NC(=O)NCC[C@H]2C[C@H](Cc3ccccc3)CCN2)c1 (racemic)
IC50: 185 nM (antagonist)
--
Compound: CCCN1CC[C@@H](Cc2ccc(F)cc2)C[C@@H]1CCCNC(=O)Nc1cccc(C(C)=O)c1
IC50: 2 nM (antagonist)
--
Compound: CC(=O)c1cccc(NC(=O)NCCC[C@H]2C[C@H](Cc3ccc(F)cc3)CCN2CC2CC2)c1
IC50: 2.5 nM (antagonist)
--
Compound: CC(=O)c1cc(NC(=O)NCCC[C@H]2C[C@H](Cc3ccc(F)cc3)CCN2CCF)cc(C(C)=O)c1
IC50: 2.3 nM (antagonist)
--
Compound: N#Cc1cccc(NC(=O)NCCC[C@@H]2C[C@H](Cc3ccccc3)CCN2)c1 (racemic)
IC50: 386 nM (antagonist)
--
Compound: CC(=O)c1cc(NC(=O)NCCC[C@H]2C[C@H](Cc3ccc(F)cc3)CCN2CCO)cc(C(C)=O)c1
IC50: 0.9 nM (antagonist)
--
Compound: CC(=O)c1cccc(NC(=O)NCCC[C@H]2C[C@H](Cc3ccc(F)cc3)CCN2)c1
IC50: 1.4 nM (antagonist)
--
Compound: N#Cc1cccc(NC(=O)NCCC[C@H]2C[C@H](Cc3ccccc3)CCN2)c1 (stereo in doubt; 5)
IC50: 644 nM (antagonist)
--
Compound: CC(=O)c1cc(NC(=O)NCCC[C@H]2C[C@H](Cc3ccc(F)cc3)CCN2CC(F)F)cc(C(C)=O)c1
IC50: 12.4 nM (antagonist)
--
Compound: CCC(=O)N1CC[C@@H](Cc2ccc(F)cc2)C[C@@H]1CCCNC(=O)Nc1cc(C(C)=O)cc(C(C)=O)c1
IC50: 5.8 nM (antagonist)
--
Compound: CC(=O)c1cc(NC(=O)NCCC[C@H]2C[C@H](Cc3ccc(F)cc3)CCN2C(C)=O)cc(C(C)=O)c1
IC50: 3.9 nM (antagonist)
--
Compound: N#Cc1cccc(NC(=O)NCCC[C@H]2C[C@H](Cc3ccccc3)CCN2)c1 (stereo in doubt; 4)
IC50: 13 nM (antagonist)
--
Compound: CC(=O)c1cc(NC(=O)NCCC[C@H]2C[C@H](Cc3ccc(F)cc3)CCN2CC(F)(F)F)cc(C(C)=O)c1
IC50: 1380 nM (antagonist)
--
Compound: C=CCN1CC[C@@H](Cc2ccc(F)cc2)C[C@@H]1CCCNC(=O)Nc1cc(C(C)=O)cc(C(C)=O)c1
IC50: 1 nM (antagonist)
--
Compound: CC(=O)c1cccc(NC(=O)NCCC[C@H]2C[C@H](Cc3ccc(F)cc3)CCN2CCO)c1
IC50: 7 nM (antagonist)
--
Compound: CC(=O)c1cccc(NC(=O)NCCC[C@H]2C[C@H](Cc3ccc(F)cc3)CCN2C)c1
IC50: 1.7 nM (antagonist)
--
Compound: C=CCN1CC[C@@H](Cc2ccc(F)cc2)C[C@@H]1CCCNC(=O)Nc1cccc(C(C)=O)c1
IC50: 4.1 nM (antagonist)

----------
Subject of test: Sodium-dependent serotonin transporter (Homo sapiens, UniProt P31645)
Sequence (P31645 whole entry): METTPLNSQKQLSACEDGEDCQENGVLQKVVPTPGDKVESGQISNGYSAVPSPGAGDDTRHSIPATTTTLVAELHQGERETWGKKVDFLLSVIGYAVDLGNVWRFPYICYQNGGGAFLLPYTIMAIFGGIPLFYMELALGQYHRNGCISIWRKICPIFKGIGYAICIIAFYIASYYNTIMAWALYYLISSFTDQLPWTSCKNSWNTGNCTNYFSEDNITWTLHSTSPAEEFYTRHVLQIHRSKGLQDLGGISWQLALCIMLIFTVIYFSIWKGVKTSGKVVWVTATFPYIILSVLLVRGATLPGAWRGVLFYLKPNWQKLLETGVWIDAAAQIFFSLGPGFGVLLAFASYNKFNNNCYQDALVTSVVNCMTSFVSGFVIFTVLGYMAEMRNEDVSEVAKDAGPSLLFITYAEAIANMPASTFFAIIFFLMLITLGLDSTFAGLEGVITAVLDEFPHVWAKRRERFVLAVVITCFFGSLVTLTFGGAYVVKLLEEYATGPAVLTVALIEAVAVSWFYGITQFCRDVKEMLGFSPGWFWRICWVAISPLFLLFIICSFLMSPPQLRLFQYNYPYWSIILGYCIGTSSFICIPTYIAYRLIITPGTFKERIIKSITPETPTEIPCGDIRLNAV
Lab note - cut at 200 nM for Ki: Y if strictly below, N if not.

Compound: CC(=O)c1cccc(NC(=O)NCCC[C@H]2C[C@H](Cc3ccc(F)cc3)CCN2CC2CC2)c1
Class label: Y
--
Compound: N#Cc1cccc(NC(=O)NCCC[C@H]2C[C@H](Cc3ccccc3)CCN2)c1 (stereo in doubt; 4)
Class label: Y
--
Compound: CCC(=O)N1CC[C@@H](Cc2ccc(F)cc2)C[C@@H]1CCCNC(=O)Nc1cc(C(C)=O)cc(C(C)=O)c1
Class label: N
--
Compound: CC(=O)c1cc(NC(=O)NCCC[C@H]2C[C@H](Cc3ccc(F)cc3)CCN2CC(N)=O)cc(C(C)=O)c1
Class label: N
--
Compound: C#CCN1CC[C@@H](Cc2ccc(F)cc2)C[C@@H]1CCCNC(=O)Nc1cc(C(C)=O)cc(C(C)=O)c1
Class label: N
--
Compound: CCCN1CC[C@@H](Cc2ccc(F)cc2)C[C@@H]1CCCNC(=O)Nc1cccc(C(C)=O)c1
Class label: N
--
Compound: CC(=O)c1cc(NC(=O)NCCC[C@H]2C[C@H](Cc3ccc(F)cc3)CCN2C(=N)N)cc(C(C)=O)c1
Class label: Y
--
Compound: CC(=O)c1cc(NC(=O)NCCC[C@H]2C[C@H](Cc3ccc(F)cc3)CCN2CCCO)cc(C(C)=O)c1
Class label: N
--
Compound: N#Cc1cccc(NC(=O)NCCC[C@H]2C[C@H](Cc3ccccc3)CCN2)c1 (stereo in doubt; 5)
Class label: Y
--
Compound: CC(=O)c1cccc(NC(=O)NCCC[C@H]2C[C@H](Cc3ccccc3)CCN2)c1 (racemic)
Class label: Y
--
Compound: CC(=O)c1cc(NC(=O)NCCC[C@H]2C[C@H](Cc3ccc(F)cc3)CCN2CCF)cc(C(C)=O)c1
Class label: Y
--
Compound: C=CCN1CC[C@@H](Cc2ccc(F)cc2)C[C@@H]1CCCNC(=O)Nc1cccc(C(C)=O)c1
Class label: N

----------
Collected pKi values appear next to each entry.
Subject of test: Sodium-dependent noradrenaline transporter (Homo sapiens, UniProt P23975)
Sequence (P23975 whole entry): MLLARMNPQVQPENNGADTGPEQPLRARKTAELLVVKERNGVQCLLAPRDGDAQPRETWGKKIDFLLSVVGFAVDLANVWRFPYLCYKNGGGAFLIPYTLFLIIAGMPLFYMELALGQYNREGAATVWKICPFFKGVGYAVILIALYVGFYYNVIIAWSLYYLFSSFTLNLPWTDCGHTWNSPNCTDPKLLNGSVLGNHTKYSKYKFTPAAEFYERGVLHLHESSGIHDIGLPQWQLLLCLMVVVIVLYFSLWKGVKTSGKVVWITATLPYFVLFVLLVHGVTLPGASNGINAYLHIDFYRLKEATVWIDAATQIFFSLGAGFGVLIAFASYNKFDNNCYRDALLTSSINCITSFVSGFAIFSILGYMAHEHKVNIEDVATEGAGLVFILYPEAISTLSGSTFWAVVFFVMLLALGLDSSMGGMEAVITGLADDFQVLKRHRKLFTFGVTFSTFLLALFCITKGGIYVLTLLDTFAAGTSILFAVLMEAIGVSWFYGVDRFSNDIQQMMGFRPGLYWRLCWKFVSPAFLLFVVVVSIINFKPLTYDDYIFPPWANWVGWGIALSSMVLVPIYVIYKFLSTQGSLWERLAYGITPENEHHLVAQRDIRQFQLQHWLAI
pKi: −log10 of the molar value.
Observed property: pKi

Smiles text: CC(=O)c1cc(NC(=O)NCCC[C@H]2C[C@H](Cc3ccc(F)cc3)CCN2CC(F)F)cc(C(C)=O)c1
Reported measurement: 5.98
//
Smiles text: CC(=O)c1cc(NC(=O)NCCC[C@H]2C[C@H](Cc3ccc(F)cc3)CCN2C(C)=O)cc(C(C)=O)c1
Reported measurement: 5.86
//
Smiles text: CCCN1CC[C@@H](Cc2ccc(F)cc2)C[C@@H]1CCCNC(=O)Nc1cc(C(C)=O)cc(C(C)=O)c1
Reported measurement: 5.83
